System: U2OS
Assay: Incucyte cell viability with U2OS; also: unitless GR value; below 1 slowed growth and below 0 cell loss
Assay type: toxicity, cell-based
Conditions: human, 0 h, 10 µM, compound concentration 10 uM, replicate number 2, timepoint 0 hours
Measurement Name: Growth Rate
Reply briefly: the number, and no unit.

Answered cases to consult:
{"columns": ["Compound", "Measurement Name", "Measured Result"],
 "data": [
  ["CCN1C(=CC(C)=O)Sc2ccc(OC)cc21", "Growth Rate", -0.03],
  ["Nc1nccc(-c2ccn3c(N)nccc23)n1", "Growth Rate", 0.39],
  ["CC(C)[C@H](C(=O)Nc1ccc(C(=O)NO)cc1)c1ccccc1", "Growth Rate", 0.37],
  ["CC(C)OC(=O)N1CCC(Oc2ncnc3c2cnn3-c2ccc(S(C)(=O)=O)cc2F)CC1", "Growth Rate", -1],
  ["C[C@H]1[C@H](OC(=O)CCC(=O)O)O[C@@H]2O[C@@]3(C)CC[C@H]4[C@H](C)CC[C@@H]1[C@@]24OO3 [ARTESUNATE]", "Growth Rate", 0.07],
  ["COc1cc(Nc2nc(C)cc(-c3cnn4nc(OC)ccc34)n2)cc(C(F)(F)F)c1", "Growth Rate", 0.84],
  ["CN(C)C/C=C/C(=O)Nc1ccc(C(=O)N2CCCC(Nc3ncc(Cl)c(-c4c[nH]c5ccccc45)n3)C2)cc1 (stereo not drawn)", "Growth Rate", 0.12]
]}

Now look at this one.
*Q* U2OS / Growth Rate / CCC(=O)OCC(=O)[C@@]1(OC(=O)CC)[C@@H](C)C[C@H]2[C@@H]3CCC4=CC(=O)C=C[C@]4(C)[C@@]3(Cl)[C@@H](O)C[C@@]21C [BECLOMETHASONE DIPROPIONATE] : value?
*A* 0.62

----------
Tested on: U2OS
Assay: Incucyte cell viability with U2OS; also: unitless GR value; below 1 slowed growth and below 0 cell loss
Assay type: toxicity, cell-based
Settings: human, 0 h, 10 µM, compound concentration 10 uM, replicate number 2, timepoint 0 hours
Rule: fulfilled for Growth Rate not less than -0.6, not fulfilled for anything less.

# count of solved cases: 6
{"columns": ["Molecule", "System", "Qualitative Label"],
 "data": [
  ["CCCCCC(O)/C=C/[C@H]1C(=O)CC(O)C1C/C=C\\CCCC(=O)O (some centres not stated)", "U2OS", "fulfilled"],
  ["COc1ccccc1N1CCN(C[C@@H](C(=O)NC(C)(C)C)c2ccccc2)CC1.Cl.Cl", "U2OS", "not fulfilled"],
  ["Cc1ccc(OCC(O)C(C)NC(C)C)c2c1CCC2.Cl (configuration not stated)", "U2OS", "fulfilled"],
  ["O=C(O)C(F)(F)F.O=C1NC(=O)/C(=C/c2c[nH]c(=O)c(-c3ccc(N4CCNCC4)nc3)c2)S1", "U2OS", "not fulfilled"],
  ["CN(C(=O)c1ccccc1)c1cc(N(C)c2ccc3c(c2)CCc2ccc(C(=O)NCCN4CCOCC4)cc2C3=O)ccc1F [FM-743]", "U2OS", "fulfilled"],
  ["CC1(C)SSC(C)(C)[C@@H](NC(=O)[C@@H](N)Cc2ccc(O)cc2)C(=O)NCC(=O)N[C@@H](Cc2ccccc2)C(=O)N[C@H]1C(=O)O.O=C(O)C(F)(F)F", "U2OS", "fulfilled"]
]}

*Q* Check the entry "Cc1ccccc1N1CCN(S(=O)(=O)C[C@]23CC[C@H](C[C@@H]2NC(=O)[C@@H](N)CCS(C)(=O)=O)C3(C)C)CC1.Cl" : does Growth Rate equal or exceed -0.6?
*A* fulfilled

*Q* Check the entry "CN[C@@H]1Cc2cccc3[nH]c(=O)n(c23)C1.O=C(O)/C=C\C(=O)O" : does Growth Rate equal or exceed -0.6?
*A* not fulfilled

*Q* Check the entry CCCC(CCC)C(=O)O [VALPROIC ACID] : does Growth Rate equal or exceed -0.6?
*A* not fulfilled

*Q* Check the entry "Cc1nn(C)c(C)c1-c1cccc2c1CC[C@H](N(C)C)C2" : does Growth Rate equal or exceed -0.6?
*A* fulfilled
